System: KM12 colon
experiment notes: NCI-60 one-dose screen, 48 h (100 = growth as untreated, 0 = no growth, -100 = all killed)
condition label: 10 µM unless noted
Compounds without any hit were thinned out: in the full panel of roughly 83,000, 20% have a hit.
The entries below are paired with their reported growth.
Numbers only here, please. The scale is %.

Example entries begin here.
molecule=CCOC(=O)c1cc2c(n1Cc1ccccc1)-c1oncc1CCC2 experimental_value=56.1
molecule=CCOC(=O)c1sc(-c2ccc(OS(=O)(=O)C[C@]34CCC(CC3=O)C4(C)C)c(C=O)c2)nc1C experimental_value=7.78

Attention now shifts to the item below.
QUERY: Data request, read-out growth, for "COc1ccc2sc3c(NCCCN)nc4ccccc4c3c(=O)c2c1"
RESULT: -54.6
